Would you kindly list pIC50 for each of these compounds?
# tested_target: human α3β4 nicotinic acetylcholine receptor (α3β4 nAChR) (Homo sapiens, UniProt P30926+P32297)
# Sequence (P32297 32-505): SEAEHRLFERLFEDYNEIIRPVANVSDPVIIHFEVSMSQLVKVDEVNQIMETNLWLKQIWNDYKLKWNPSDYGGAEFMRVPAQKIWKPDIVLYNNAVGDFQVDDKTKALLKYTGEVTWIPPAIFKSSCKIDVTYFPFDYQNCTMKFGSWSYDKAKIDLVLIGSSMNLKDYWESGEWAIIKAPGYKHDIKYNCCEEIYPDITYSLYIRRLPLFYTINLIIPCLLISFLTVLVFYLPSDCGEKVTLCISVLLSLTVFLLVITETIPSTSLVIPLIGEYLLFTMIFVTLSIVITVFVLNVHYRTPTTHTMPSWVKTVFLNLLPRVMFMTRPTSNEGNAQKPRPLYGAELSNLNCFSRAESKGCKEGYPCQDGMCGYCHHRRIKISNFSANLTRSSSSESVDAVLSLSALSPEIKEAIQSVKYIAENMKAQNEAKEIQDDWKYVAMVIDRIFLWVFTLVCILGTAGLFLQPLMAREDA
# Sequence (P30926 22-498): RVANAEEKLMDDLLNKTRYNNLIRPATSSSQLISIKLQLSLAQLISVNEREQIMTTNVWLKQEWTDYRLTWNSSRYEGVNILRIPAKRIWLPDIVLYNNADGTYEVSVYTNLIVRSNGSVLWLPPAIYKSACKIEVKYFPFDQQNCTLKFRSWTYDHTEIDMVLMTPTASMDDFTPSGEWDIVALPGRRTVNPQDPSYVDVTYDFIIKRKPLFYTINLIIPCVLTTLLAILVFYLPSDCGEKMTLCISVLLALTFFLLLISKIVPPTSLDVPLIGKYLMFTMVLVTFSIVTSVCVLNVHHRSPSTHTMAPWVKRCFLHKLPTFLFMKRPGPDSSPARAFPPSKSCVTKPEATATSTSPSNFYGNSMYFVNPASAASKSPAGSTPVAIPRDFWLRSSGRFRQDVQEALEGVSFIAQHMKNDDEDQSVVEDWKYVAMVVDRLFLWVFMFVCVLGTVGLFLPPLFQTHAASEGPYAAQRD
# experiment_description: aequorin intracellular calcium assay, inhibition of ACh response
# Format: cell-based
Answers are plain numbers, as −log10 of the molar value.

COc1cc2c3cc1Oc1cc(ccc1O)C[C@@H]1c4c(cc(OC)c(O)c4Oc4ccc(cc4)C[C@@H]3N(C)CC2)CC[N+]1(C)C ... 6.00

# compound CCCCCCC(=O)OC1CC(C)(C)NC(C)(C)C1 ; its pIC50 = 6.08

---

Could you please report measured pIC50 for the items listed next?
# tested_target: human α3β4α5D nAChR (D398 variant of α5; α3β4α5N carries N398) (Homo sapiens, UniProt P30532+P30926+P32297)
# experiment_description: aequorin intracellular calcium assay, inhibition of ACh response
# Format: cell-based
Give bare numbers, as −log10 of the molar value.

COc1cc2c3cc1Oc1cc(ccc1O)C[C@@H]1c4c(cc(OC)c(O)c4Oc4ccc(cc4)C[C@@H]3N(C)CC2)CC[N+]1(C)C ... 6.03

Kindly review the next compound as well.
Notebook: CCCCCCC(=O)OC1CC(C)(C)NC(C)(C)C1 , pIC50 read as 6.44
